test system: Male Wistar rats; assay: Gastric cytoprotection (ethanol ulcer rat); format: in vivo; details: po, 1 h; p.o.; absolute ethanol (1 ml/rat) orally one hour after test compound; gastric lesions measured one hour later; read-out: 3)Cytopro-tection ethanol ulcer rat ED50(mg/kg p.o.)
Structures can show the parent of a compound that is named as a salt.
Quick list: ED50 per entry.

| MOLECULE | ED50, mg/kg |
| --- | --- |
| CC=CCc1c(C)[nH]c(NCCCOc2cccc(CN3CCCC3)c2)nc1=O | 41.4 |
| C=C(C)Cc1c(C)[nH]c(NCCCOc2cccc(CN3CCCC(C)C3)c2)nc1=O (centres unmarked) | 13.6 |
| CCCCCCCc1c(C)[nH]c(NCCCOc2cccc(CN3CCCCC3)c2)nc1=O [Example 1, di-hydrochloride] | 6 |
| CCCCc1c(C)[nH]c(NCCCOc2cccc(CN3CCCCC3)c2)nc1=O [Example 4, dihydrochloride] | 5.8 |
| C=CCc1c(C)[nH]c(NCCCOc2cccc(CN3CCCC(C)C3)c2)nc1=O (centres unmarked) | 17 |
| CC=CCc1c(C)[nH]c(NCCCOc2cccc(CN3CCCC(C)C3)c2)nc1=O (centres unmarked) | 6.7 |
| C#CCc1c(C)[nH]c(NCCCOc2cccc(CN3CCCCC3)c2)nc1=O | 23.3 |
| CCCCCc1c(CC)[nH]c(NCCCOc2cccc(CN3CCCCC3)c2)nc1=O [Example 5, dihydrate] | 9.6 |
| CC(C)=CCc1c(C)[nH]c(NCCCOc2cccc(CN3CCCCC3)c2)nc1=O | 20.5 |
| CCSCCc1c(C)[nH]c(NCCCOc2cccc(CN3CCCCC3)c2)nc1=O | 25.4 |
| CCCc1c(C)[nH]c(NCCCOc2cccc(CN3CCCCC3)c2)nc1=O | 6.6 |

----------
biological target: histamine H2-receptor (Cavia porcellus, UniProt P47747); construct: The atrium isolated from quinea-pigs was mounted in an organ bath; from tissue; host or cells: isolated guinea pig atrium; assay: H2-Blocking activity (isolated guinea pig atrium, chronotropic response to histamine); format: cell-based; settings: isolated guinea pig atrium; test drugs 30 min. before 5 x 10^-6M histamine; dose producing 50% blockade of chronotropic response; read-out: 1)H2-bloc-kade guinea pig atrium ED50
Sequence (P47747 whole entry): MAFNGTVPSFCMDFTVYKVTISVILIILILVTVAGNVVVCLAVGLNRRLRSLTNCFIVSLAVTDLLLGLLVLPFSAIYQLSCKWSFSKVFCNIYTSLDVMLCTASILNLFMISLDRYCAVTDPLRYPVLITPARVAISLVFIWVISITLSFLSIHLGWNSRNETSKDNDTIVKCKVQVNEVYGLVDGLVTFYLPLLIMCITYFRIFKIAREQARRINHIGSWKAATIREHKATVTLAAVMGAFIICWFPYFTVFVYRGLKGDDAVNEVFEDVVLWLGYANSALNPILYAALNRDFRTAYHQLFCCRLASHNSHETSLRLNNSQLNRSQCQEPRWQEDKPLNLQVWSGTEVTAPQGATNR
Counter-ions that a name gives are not always drawn.
ENDPOINT_LABEL: IC50 (nM)

| MOLECULE | ENDPOINT_LABEL | PREFIX_OPERATOR | OBSERVED_MEASUREMENT |
| --- | --- | --- | --- |
| C=C(C)Cc1c(C)[nH]c(NCCCOc2cccc(CN3CCCC(C)C3)c2)nc1=O (stereo not drawn) | IC50 | = | 290 |
| CCCCCCCc1c(C)[nH]c(NCCCOc2cccc(CN3CCCCC3)c2)nc1=O [Example 1, di-hydrochloride] | IC50 | > | 1000 |
| C#CCc1c(C)[nH]c(NCCCOc2cccc(CN3CCCCC3)c2)nc1=O | IC50 | = | 210 |
| CC=CCc1c(C)[nH]c(NCCCOc2cccc(CN3CCCC3)c2)nc1=O | IC50 | = | 820 |
| C=CCc1c(C)[nH]c(NCCCOc2cccc(CN3CCCC(C)C3)c2)nc1=O (stereo not drawn) | IC50 | = | 170 |
| CC=CCc1c(C)[nH]c(NCCCOc2cccc(CN3CCCC(C)C3)c2)nc1=O (stereo not drawn) | IC50 | = | 610 |
| CCCCc1c(C)[nH]c(NCCCOc2cccc(CN3CCCCC3)c2)nc1=O [Example 4, dihydrochloride] | IC50 | = | 420 |
| CCCc1c(C)[nH]c(NCCCOc2cccc(CN3CCCCC3)c2)nc1=O | IC50 | = | 510 |
| CC(C)=CCc1c(C)[nH]c(NCCCOc2cccc(CN3CCCCC3)c2)nc1=O | IC50 | = | 360 |
| CCCCCc1c(CC)[nH]c(NCCCOc2cccc(CN3CCCCC3)c2)nc1=O [Example 5, dihydrate] | IC50 | = | 8900 |
| CCSCCc1c(C)[nH]c(NCCCOc2cccc(CN3CCCCC3)c2)nc1=O | IC50 | = | 400 |
| CC(=O)OCC(=O)NCCCOc1cccc(CN2CCCCC2)c1 [TZU-0460, hydrochloride, reference compound] | IC50 | = | 370 |
